- study.system: hCA XII (Homo sapiens, UniProt O43570)
- Construct: made in house
- Sequence (O43570 25-354): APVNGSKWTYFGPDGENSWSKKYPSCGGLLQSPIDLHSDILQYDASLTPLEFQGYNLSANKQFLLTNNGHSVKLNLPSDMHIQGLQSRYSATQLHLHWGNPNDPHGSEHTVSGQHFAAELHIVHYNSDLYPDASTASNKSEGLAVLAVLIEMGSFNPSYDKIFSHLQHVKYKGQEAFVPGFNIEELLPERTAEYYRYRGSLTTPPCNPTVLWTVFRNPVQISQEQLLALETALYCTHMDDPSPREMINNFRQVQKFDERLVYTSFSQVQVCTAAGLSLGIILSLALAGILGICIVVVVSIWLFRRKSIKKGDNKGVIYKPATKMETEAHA
- run.description: CA catalysed CO2 hydration, stopped-flow inhibition
- Assay type: biochemical
Please provide measured pKi for the entries that follow.
The quantity pKi is defined as the negative base-10 logarithm of the molar concentration.

Exam item: GET /values?readout=pKi&item= C#CC[Se]C(=O)CCc1ccccc1
Marked response: 5.15

Exam item: Another compound: C#CC[Se]C(=O)c1ccccc1Cl
Marked response: 4.54

====

- study.system: hCA II (Homo sapiens, UniProt P00918)
- Construct: made in house
- run.description: CA catalysed CO2 hydration, stopped-flow inhibition
- Type: biochemical
metric.name: Ki (µM)
Field: numeric (µM). Do not append units.

Exam item: GET /values?readout=Ki&item= C#CC[Se]C(=O)CCc1ccccc1
Marked response: 9.5

====

Please provide measured pKi for the entries that follow.
- study.system: hCA IX (Homo sapiens, UniProt Q16790)
- Construct: made in house
- run.description: CA catalysed CO2 hydration, stopped-flow inhibition
- Format: biochemical
- measurement.parameters: recombinant hCA IX, stopped-flow CO2 hydration, 15 min preincubation
The quantity pKi is defined as the negative base-10 logarithm of the molar concentration.

Exam item: Lab note: need pKi with hCA IX (Homo sapiens, UniProt Q16790) for entry C#CC[Se]C(=O)CCc1ccccc1 [Compound 6b] , please look it up.
Marked response: 4.60

Exam item: Another compound: C#CC[Se]C(=O)c1ccccc1O [Compound 13b]
Marked response: 4.26

Exam item: Another compound: C#CC[Se]C(=O)C=Cc1ccccc1 [Compound 5b]
Marked response: 4.10

====

- study.system: hCA II (Homo sapiens, UniProt P00918)
- Construct: made in house
- run.description: CA catalysed CO2 hydration, stopped-flow inhibition
- Type: biochemical
- measurement.parameters: recombinant hCA II, stopped-flow CO2 hydration, 15 min preincubation; read-out: Ki hCA II
metric.name: Ki

Exam item: Lab note: need Ki with hCA II (Homo sapiens, UniProt P00918) for entry C#CC[Se]C(=O)c1ccco1 [Compound 11b] , please look it up.
Marked response: 49.9 µM

Exam item: Another compound: C=CC[Se]C(=O)c1ccccc1OC(C)=O [Compound 14a]
Marked response: > 100 µM

Exam item: Another compound: C=CC[Se]C(=O)c1ccco1 [Compound 11a]
Marked response: > 100 µM

Exam item: Another compound: C=CC[Se]C(=O)c1sccc1Cl [Compound 10a]
Marked response: > 100 µM

Exam item: Another compound: C#CC[Se]C(=O)c1ccccc1Nc1cccc(C(F)(F)F)c1 [Compound 19b]
Marked response: > 100 µM

Exam item: Another compound: C#CC[Se]C(=O)c1ccno1 [Compound 12b]
Marked response: > 100 µM

====

Please provide measured Ki for the entries that follow.
- study.system: hCA isoforms I, II, VA, IX, and XII
- run.description: CA inhibition, summary statements over all tested isoforms
- measurement.parameters: all CA isoforms tested for series b; read-out: Ki range over all CA isoforms

Exam item: GET /values?readout=Ki&item= C#CC[Se]C(=O)CCc1ccccc1
Marked response: 2.2 to 48.5 µM

Exam item: Another compound: C#CC[Se]C(=O)c1cccnc1Cl
Marked response: 2.2 to 48.5 µM

====

- study.system: hCA I (Homo sapiens, UniProt P00915)
- Construct: made in house
- Sequence (P00915 whole entry): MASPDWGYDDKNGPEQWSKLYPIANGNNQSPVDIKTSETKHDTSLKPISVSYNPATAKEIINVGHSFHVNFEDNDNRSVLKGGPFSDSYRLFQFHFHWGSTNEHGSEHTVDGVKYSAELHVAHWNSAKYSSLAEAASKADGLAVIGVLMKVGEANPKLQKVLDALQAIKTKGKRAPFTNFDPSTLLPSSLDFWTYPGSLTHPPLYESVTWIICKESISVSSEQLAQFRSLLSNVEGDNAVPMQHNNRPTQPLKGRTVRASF
- run.description: CA catalysed CO2 hydration, stopped-flow inhibition
- Assay type: biochemical
metric.name: pKi
The quantity pKi is defined as the negative base-10 logarithm of the molar concentration.

Exam item: GET /values?readout=pKi&item= C#CC[Se]C(=O)CCc1ccccc1 [Compound 6b]
Marked response: 5.51

Exam item: Another compound: C#CC[Se]C(=O)c1ccccc1Cl [Compound 3b]
Marked response: 4.38
